Target: β-catenin/Tcf4 PPI (Homo sapiens, UniProt P35222)
Sequence (P35222 138-686): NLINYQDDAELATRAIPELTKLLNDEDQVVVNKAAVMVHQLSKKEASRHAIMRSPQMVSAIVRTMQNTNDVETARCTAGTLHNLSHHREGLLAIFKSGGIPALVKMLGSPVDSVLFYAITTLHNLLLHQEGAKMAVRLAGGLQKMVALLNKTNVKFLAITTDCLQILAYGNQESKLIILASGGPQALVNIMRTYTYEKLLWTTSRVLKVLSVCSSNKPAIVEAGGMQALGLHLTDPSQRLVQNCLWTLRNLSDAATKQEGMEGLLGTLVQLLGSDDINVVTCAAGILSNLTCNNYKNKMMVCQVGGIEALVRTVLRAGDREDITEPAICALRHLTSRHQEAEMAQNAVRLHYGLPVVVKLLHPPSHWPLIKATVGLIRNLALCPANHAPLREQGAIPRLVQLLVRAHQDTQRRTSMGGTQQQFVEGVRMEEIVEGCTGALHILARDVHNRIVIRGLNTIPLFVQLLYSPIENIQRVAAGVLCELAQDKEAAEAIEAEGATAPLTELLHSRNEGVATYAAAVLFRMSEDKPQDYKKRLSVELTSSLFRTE
Settings: read-out: Ki + SD FP; Table 3, purchased screening hits
REPORTED ENDPOINT: Ki
Please don't drop the unit; write it after the number.

Name the recorded Ki of the compound listed here: "O=C(O)c1cc2nc(-c3ccc4c(c3)OCO4)c(-c3ccc4c(c3)OCO4)nc2cc1O"
8.7 µM

----------
Molecular target: β-catenin/Tcf4 PPI (Homo sapiens)
Conditions: read-out: Ki + SD AlphaScreen; Table 3, purchased screening hits
REPORTED ENDPOINT: pKi
Kindly note that pKi refers to -log10 of the concentration in mol/L and answer with the value alone.

Name the recorded pKi of the compound listed here: "O=C(O)c1cc2nc(-c3ccc4c(c3)OCO4)c(-c3ccc4c(c3)OCO4)nc2cc1O"
4.92
